What Activity was measured for each of the following?
System: Mus musculus
Assay: Hepatotoxicity in Kunming mouse assessed as serum aspartate aminotransferase level at 10 mg/kg, iv (reference value: 197.2 +/- 11.2 U/L)
Assay type: toxicity, organism-based
Set-up: dose 10 mg/kg, route intravenous
Settings: in vivo
Number in U/L, nothing else.

Qu. What reported Activity corresponds to C=CCNC1=C2C[C@@H](C)C[C@H](OC)[C@H](O)[C@@H](C)/C=C(\C)[C@H](OC(N)=O)[C@@H](OC)/C=C\C=C(/C)C(=O)NC(=CC1=O)C2=O [TANESPIMYCIN] on Mus musculus?
Ans. 237.4

Qu. What reported Activity corresponds to `COc1cc(/C=C/C(=O)NCCCCCCNC2=C3C[C@@H](C)C[C@H](OC)[C@H](O)[C@@H](C)/C=C(\C)[C@H](OC(N)=O)[C@@H](OC)/C=C\C=C(/C)C(=O)NC(=CC2=O)C3=O)cc(OC)c1OC` on Mus musculus?
Ans. 181

Qu. What reported Activity corresponds to `COc1ccc(/C=C/C(=O)NCCCCCCNC2=C3C[C@@H](C)C[C@H](OC)[C@H](O)[C@@H](C)/C=C(\C)[C@H](OC(N)=O)[C@@H](OC)/C=C\C=C(/C)C(=O)NC(=CC2=O)C3=O)cc1OC` on Mus musculus?
Ans. 193.4

Qu. What reported Activity corresponds to `COc1cc(/C=C/C(=O)NCCCCNC2=C3C[C@@H](C)C[C@H](OC)[C@H](O)[C@@H](C)/C=C(\C)[C@H](OC(N)=O)[C@@H](OC)/C=C\C=C(/C)C(=O)NC(=CC2=O)C3=O)ccc1O` on Mus musculus?
Ans. 224.8

Qu. What reported Activity corresponds to `COc1cc(/C=C/C(=O)NCCCCCCNC2=C3C[C@@H](C)C[C@H](OC)[C@H](O)[C@@H](C)/C=C(\C)[C@H](OC(N)=O)[C@@H](OC)/C=C\C=C(/C)C(=O)NC(=CC2=O)C3=O)ccc1O` on Mus musculus?
Ans. 199.3

Qu. What reported Activity corresponds to COC1=C2C[C@@H](C)C[C@H](OC)[C@H](O)[C@@H](C)/C=C(\C)[C@H](OC(N)=O)[C@@H](OC)/C=C\C=C(/C)C(=O)NC(=CC1=O)C2=O [GELDANAMYCIN] on Mus musculus?
Ans. 317.2

Qu. What reported Activity corresponds to `COc1cc(/C=C/C(=O)N2CCC(CNC3=C4C[C@@H](C)C[C@H](OC)[C@H](O)[C@@H](C)/C=C(\C)[C@H](OC(N)=O)[C@@H](OC)/C=C\C=C(/C)C(=O)NC(=CC3=O)C4=O)CC2)ccc1O` on Mus musculus?
Ans. 260.8

---

Test: Safety index, ratio of IC50 for 17-AAG to IC50 for test compound against human HL7702 cells after 72 hrs by MTT assay
Format: cell-based, L02
Conditions: read-out: Ratio IC50
MEASURED_ATTRIBUTE: selectivity ratio at 72 h
Note: the reply should be a number with no unit written.

Qu. // selectivity ratio at 72 h lookup, key: `COc1cc(/C=C/C(=O)NCCCCCCNC2=C3C[C@@H](C)C[C@H](OC)[C@H](O)[C@@H](C)/C=C(\C)[C@H](OC(N)=O)[C@@H](OC)/C=C\C=C(/C)C(=O)NC(=CC2=O)C3=O)cc(OC)c1OC`
Ans. 50
